Reported OD492 nm values are given for each entry in this list.
Biological target: T1, HCV Core1-169 recombinant antigen (hepatitis C virus (HCV-1), UniProt P26664 1-169)
T1 sequence: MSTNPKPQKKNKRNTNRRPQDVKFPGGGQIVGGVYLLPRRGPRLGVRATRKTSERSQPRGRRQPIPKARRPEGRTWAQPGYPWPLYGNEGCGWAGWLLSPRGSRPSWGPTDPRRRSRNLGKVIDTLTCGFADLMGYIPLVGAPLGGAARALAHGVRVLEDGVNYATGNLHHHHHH
Test: sandwich EIA, 25 ng/ml core1-169; capture NC capture mAb
Answer format: value, then unit.

Examples with their reported OD492 nm follow.
HCV 208B-1096 monoclonal antibody (antibody, V domains shown) VH: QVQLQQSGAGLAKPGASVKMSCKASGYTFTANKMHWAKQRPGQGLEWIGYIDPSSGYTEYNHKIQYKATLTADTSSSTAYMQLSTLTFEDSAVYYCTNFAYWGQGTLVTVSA VL: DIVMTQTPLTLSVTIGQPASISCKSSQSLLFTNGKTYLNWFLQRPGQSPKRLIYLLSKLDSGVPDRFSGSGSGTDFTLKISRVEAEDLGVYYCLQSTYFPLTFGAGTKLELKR; 0.17 OD492
208B-612-226 monoclonal antibody (antibody, V domains shown) VH: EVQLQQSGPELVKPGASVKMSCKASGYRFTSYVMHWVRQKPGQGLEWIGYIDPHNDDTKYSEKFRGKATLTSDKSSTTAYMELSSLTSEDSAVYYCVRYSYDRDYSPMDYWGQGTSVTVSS VL: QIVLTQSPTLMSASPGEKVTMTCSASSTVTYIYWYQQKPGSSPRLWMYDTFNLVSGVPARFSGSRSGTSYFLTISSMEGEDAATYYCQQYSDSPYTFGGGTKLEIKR; 0.21 OD492
208A-207-271 monoclonal antibody (antibody, V domains shown) VH: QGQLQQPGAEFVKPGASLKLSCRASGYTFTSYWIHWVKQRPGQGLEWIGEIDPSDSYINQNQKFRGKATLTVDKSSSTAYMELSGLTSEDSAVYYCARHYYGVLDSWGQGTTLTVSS VL: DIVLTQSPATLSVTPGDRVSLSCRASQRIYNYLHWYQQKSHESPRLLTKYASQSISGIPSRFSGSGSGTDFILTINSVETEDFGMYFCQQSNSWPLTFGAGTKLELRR; 0.37 OD492

Now consider the entry below.
Return OD492 nm for the following binder: HCV 208A-692 monoclonal antibody (antibody, V domains shown) VH: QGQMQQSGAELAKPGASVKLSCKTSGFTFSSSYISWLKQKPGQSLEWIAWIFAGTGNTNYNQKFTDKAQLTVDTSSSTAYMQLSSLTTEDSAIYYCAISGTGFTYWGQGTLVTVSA VL: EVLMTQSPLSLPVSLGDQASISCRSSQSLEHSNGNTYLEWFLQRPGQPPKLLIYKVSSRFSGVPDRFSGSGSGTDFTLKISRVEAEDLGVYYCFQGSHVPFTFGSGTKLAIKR
0.4 OD492
